B1: Metallothionein expression activator (Saccharomyces cerevisiae), P21192 (parent)
chain: MDNVVDPWYINPSGFAKDTQDEEYVQHHDNVNPTIPPPDNYILNNENDDGLDNLLGMDYYNIDDLLTQELRDLDIPLVPSPKTGDGSSDKKNIDRTWNLGDENNKVSHYSKKSMSSHKRGLSGTAIFGFLGHNKTLSISSLQQSILNMSKDPQPMELINELGNHNTVKNNNDDFDHIRENDGENSYLSQVLLKQQEELRIALEKQKEVNEKLEKQLRDNQIQQEKLRKVLEEQEEVAQKLVSGATNSNSKPGSPVILKTPAMQNGRMKDNAIIVTTNSANGGYQFPPPTLISPRMSNTSINGSPSRKYHRQRYPNKSPESNGLNLFSSNSGYLRDSELLSFSPQNYNLNLDGLTYNDHNNTSDKNNNDKKNSTGDNIFRLFEKTSPGGLSISPRINGNSLRSPFLVGTDKSRDDRYAAGTFTPRTQLSPIHKKRESVVSTVSTISQLQDDTEPIHMRNTQNPTLRNANALASSSVLPPIPGSSNNTPIKNSLPQKHVFQHTPVKAPPKNGSNLAPLLNAPDLTDHQLEIKTPIRNNSHCEVESYPQVPPVTHDIHKSPTLHSTSPLPDEIIPRTTPMKITKKPTTLPPGTIDQYVKELPDKLFECLYPNCNKVFKRRYNIRSHIQTHLQDRPYSCDFPGCTKAFVRNHDLIRHKISHNAKKYICPCGKRFNREDALMVHRSRMICTGGKKLEHSINKKLTSPKKSLLDSPHDTSPVKETIARDKDGSVLMKMEEQLRDDMRKHGLLDPPPSTAAHEQNSNRTLSNETDAL

variants of: B1; settings: with xpo1_yeast CRM1, P30822
property.name: effect of a mutation on the interaction

variant_key=S137D value_observed="decreasing interaction"
variant_key=F127V value_observed="disrupting interaction"
variant_key=S122D;S137D value_observed="disrupting interaction"
variant_key=S122D value_observed="decreasing interaction"
